Test: growth inhibition of WT strain, primary screen, mitochondrial fusion inhibitor project, WT and mutant strains, chemical genetic (AID 1362)
Conditions: mitochondrial fusion phenotypic screen, mutant strain inhibition; at 10 µM
Out of some 190,000 compounds screened, about 4,000 (2.1%) were called active. Only a selection was taken, and actives are over-represented in it overall.
observation.type: inhibition (%)

INSERT INTO measurements (compound, reported) VALUES
  ('Cc1ccc(CN(Cc2cccnc2)C(=S)Nc2cc(Cl)ccc2C)cc1', 29.6),
  ('Cc1ccc(CN(Cc2cccnc2)C(=S)Nc2cccc(Cl)c2C)cc1', 36.3),
  ('COc1ccc(CNc2c(CO)cnc3c2cnn3C)cc1', 3.68),
  ('Cc1cccc(C)c1NC(=S)N(Cc1cccnc1)Cc1ccccc1Cl', -19.8),
  ('NS(=O)(=O)c1ccc(NC(=S)Nc2ccc(Br)c(Cl)c2)cc1', 54.2),
  ('O=C(Nc1ccon1)c1sc2ccccc2c1Cl', 0.77),
  ('CCCCCCOC(=O)NCC(O)c1ccccc1 (stereo unspecified)', -10.2),
  ('NC(=O)COC(=O)c1cc(S(=O)(=O)N2CCN(c3ccccc3)CC2)ccc1Cl', 6.11),
  ('Cc1ccc(S(=O)(=O)N(C)CC(=O)OCC(=O)N2CC(=O)Nc3ccccc32)cc1', -6.41),
  ('CC(C)(C)Oc1ncc(Br)c(OC(C)(C)C)n1', 15.1),
  ('CN1C(=O)C(CC(=O)Nc2ccccc2)S/C1=N/c1nccs1 (stereo unspecified)', 3.24),
  ('O=C(NCCCN1CCOCC1)c1ccccc1NS(=O)(=O)c1ccc(F)cc1', 6.56),
  ('COc1cc(NC(=S)NCCSc2ccc(C)cc2)cc(OC)c1', 51.4),
  ('Cc1ccc2cc(C#N)c(NCCNC(=S)NCCCN3CCOCC3)nc2c1', 3.33),
  ('O=c1c(-c2ccc3c(c2)OCCO3)c(C(F)(F)F)oc2cc(O)cc(O)c12', 42.8),
  ('O=C(Nc1ccc(NC(=O)c2ccco2)c(Cl)c1)c1cccc([N+](=O)[O-])c1', 16.7),
  ('CC[N+]1(CC)CC2=Cc3ccccc3CC2C1 (stereo unspecified)', -6.63),
  ('c1ccc(-c2cn3cccnc3n2)cc1', -1.07),
  ('COc1cccc(-c2cnc(OC(C)(C)C)nc2OC(C)(C)C)c1', 27.8),
  ('N#Cc1cccc(Nc2c3c(nc4ccccc24)CCCC3)c1', 6.35),
  ('CCn1nccc1C(=O)Nc1ccc(Cl)c(Cl)c1', 28.1),
  ('CNC(=O)CN1C(=O)c2ccccc2S1(=O)=O', -7.85),
  ('CCOC(=O)c1c(C)[nH]c2c1-c1ccccc1C(=O)C2=O', 15),
  ('Cc1ccc(Cl)cc1NC(=O)C1CCN(S(C)(=O)=O)CC1', -12.3),
  ('CCn1nccc1C(=O)Nc1ccc(S(=O)(=O)NC23CC4CC(CC(C4)C2)C3)cc1', -11.7),
  ('O=C(N/N=C/c1c(Cl)[nH]c2ccccc12)c1sc2ccccc2c1Cl', 41.3),
  ('O=C(CCN1C(=O)c2ccccc2C1=O)Nc1ccncc1', -2.76),
  ('COc1ccnc(Oc2ccccc2)c1-c1ncn[nH]1', 2.35),
  ('O=C1c2ccccc2S(=O)(=O)N1CC(O)Cn1c2ccccc2c2ccccc21 (stereo unspecified)', 45.8),
  ('c1ccc(-c2cn3c(n2)CCc2ccc4cccnc4c2-3)cc1', 4.75),
  ('Cc1ccc(OCc2n[nH]c(=S)n2-c2ccccc2)cc1', 20.6),
  ('S=c1[nH]nc(COc2ccccc2)n1-c1ccccc1', -7.05),
  ('Cc1ccc(OCc2n[nH]c(=S)n2-c2ccc(C)cc2)cc1', 60.1),
  ('CCOC(=O)c1c(CN(C)C)n(-c2ccccc2)c2cc(Br)c(O)cc12', 7.76),
  ('Cc1ccc(Cl)cc1NC(=S)N(CCN(C)C)Cc1cccs1', 13.3),
  ('COc1cccc(-c2nc3cc(C)ccc3o2)c1', 17.7),
  ('Cc1cc(C(F)F)n2nc(C(=O)Nc3ccc(S(=O)(=O)NC45CC6CC(CC(C6)C4)C5)cc3)nc2n1', -19.6),
  ('Cc1ccc(-c2csc(N(Cc3ccco3)C(=O)c3cccs3)n2)cc1', 34.4),
  ('CCCCCC(=O)Nc1ccc(-c2cn3cccnc3n2)cc1', 10.5),
  ('O=C(CCN1c2ccccc2Sc2ccccc21)Nc1ccccc1', 43.4),
  ('CC(C)c1ccc2c(c1)c(SC(C)(C)C)c(CC(C)(C)C(=O)O)n2Cc1ccc(Cl)cc1', 23.5),
  ('NS(=O)(=O)c1ccc(CCNC(=S)Nc2ccc(S(N)(=O)=O)cc2)cc1', -14.5),
  ('O=C(NCc1ccc(Cl)cc1)NCc1ccc(Cl)cc1', 4.87),
  ('COc1ccc(NS(=O)(=O)c2ccc(O)c(C(=O)OCC(=O)NC3CCCCC3)c2)cc1', 17.3),
  ('CCn1ccnc1CN1CCCC(C(=O)c2ccc3c4c(cccc24)CC3)C1 (stereo unspecified)', 36.2),
  ('COCCNC(=S)N(Cc1cccnc1)Cc1ccc(OC)c(OC)c1', 0);
